The origin of these recorded values is paper PMC5598403.

measured_on: CK2α (protein kinase CK2 catalytic subunit α) (Homo sapiens, UniProt P68400)
Sequence (P68400 whole entry): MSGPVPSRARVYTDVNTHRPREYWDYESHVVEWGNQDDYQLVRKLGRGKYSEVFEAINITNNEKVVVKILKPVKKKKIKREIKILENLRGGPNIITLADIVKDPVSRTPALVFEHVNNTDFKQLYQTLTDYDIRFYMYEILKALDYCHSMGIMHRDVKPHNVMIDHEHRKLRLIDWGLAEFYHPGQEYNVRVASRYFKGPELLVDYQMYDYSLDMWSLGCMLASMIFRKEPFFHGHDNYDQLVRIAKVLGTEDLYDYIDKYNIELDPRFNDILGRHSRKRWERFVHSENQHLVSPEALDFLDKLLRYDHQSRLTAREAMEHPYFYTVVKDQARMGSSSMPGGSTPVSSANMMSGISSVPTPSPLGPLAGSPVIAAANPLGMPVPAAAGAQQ
test_summary: radiometric [γ-32P]ATP kinase assay with synthetic peptide RRRADDSDDDDD
reported_property: IC50
Param answer (str): number followed by unit.

// lookup IC50 for Oc1c(Cl)c(Cl)c(Cl)c(Cl)c1Cl [PCP, pentachlorophenol]
3.73 µM
